# Tested on: S180 ascites
# protocol.text: Screening for anti-tumor activity against S180 ascites (S180a) in mice
# Type: in vivo, female CFW Swiss mice
# protocol.conditions: Dose 40 mg/kg, medium H2O, S180a in mice, survivors/mice in set
So I've got a bunch of molecules here, and I need their 30-Day Survivors values.

Some solved cases for reference:
molecule	30-Day Survivors
N.N.[Cl-].[Cl][Pt+].c1ccncc1 [Example 18]	0/6
[Cl-].[NH3+][Pt-2]([NH3+])([Cl])[n+]1cccc(O)c1 (centres unmarked) [Example 4]	0/6
[Cl-].[Cl][Pt-2]1([n+]2ccccc2)[NH2+]C2CCCCC2[NH2+]1 (centres unmarked) [Example 19]	0/6

Go through the items and report each one's 30-Day Survivors.
1. [Cl-].[NH3+][Pt-2]([NH3+])([Cl])[n+]1ccc(Cl)cc1 (centres unmarked) [Example 8]
2. Cc1ccc(O)c[n+]1[Pt-2]([NH3+])([NH3+])[Cl].[Cl-] (centres unmarked) [Example 7]
3. Cc1cc[n+]([Pt-2]([NH3+])([NH3+])[Cl])cc1.[Cl-] (centres unmarked) [Example 5]
4. Cc1cccc(O)[n+]1[Pt-2]([NH3+])([NH3+])[Cl].[Cl-] (centres unmarked) [Example 3]
5. N.N.Nc1cc[nH]c(=O)n1.[Cl-].[Cl][Pt+] [Example 6]

Response line:
4/6
2/6
2/6
0/6
1/6

----------
# System: S180 ascites
# protocol.text: Screening for anti-tumor activity against S180 ascites (S180a) in mice
# Assay type: in vivo, female CFW Swiss mice
# protocol.conditions: Dose 160 mg/kg, medium H2O, S180a in mice, survivors/mice in set
measurement.type: 30-Day Survivors

molecule	reading
N.N.Nc1cc[nH]c(=O)n1.[Cl-].[Cl][Pt+] [Example 6]	3/6

Go through the items and report each one's 30-Day Survivors.
1. Cc1cc[n+]([Pt-2]([NH3+])([NH3+])[Cl])cc1.[Cl-] (stereo not shown) [Example 5]
2. Cc1cccc(O)[n+]1[Pt-2]([NH3+])([NH3+])[Cl].[Cl-] (stereo not shown) [Example 3]
3. [Cl-].[NH3+][Pt-2]([NH3+])([Cl])[n+]1ccc(Cl)cc1 (stereo not shown) [Example 8]
4. [Cl-].[Cl][Pt-2]1([n+]2ccccc2)[NH2+]C2CCCCC2[NH2+]1 (stereo not shown) [Example 19]
5. N.N.[Cl-].[Cl][Pt+].c1ccncc1 [Example 1]
6. [Cl-].[NH3+][Pt-2]([NH3+])([Cl])[n+]1cccc(O)c1 (stereo not shown) [Example 4]
7. N.N.Oc1ccccn1.[Cl-].[Cl][Pt+] [Example 2]

Response line:
1. 0/6
2. 5/6
3. 0/6
4. 0/6
5. 0/6
6. 1/6
7. 3/6

Go through the items and report each one's 30-Day Survivors.
1. N.N.[Cl-].[Cl][Pt+].c1ccncc1 [Example 18]
2. Cc1ccc(O)c[n+]1[Pt-2]([NH3+])([NH3+])[Cl].[Cl-] (stereo not shown) [Example 7]

Response line:
1. 0/6
2. 3/6

----------
# Tested on: S180 ascites
# protocol.text: Screening for anti-tumor activity against S180 ascites (S180a) in mice
# Format: in vivo, female CFW Swiss mice
# protocol.conditions: Dose 320 mg/kg, medium H2O, S180a in mice, survivors/mice in set
measurement.type: 30-Day Survivors

Some solved cases for reference:
compound	reading
[Cl-].[NH3+][Pt-2]([NH3+])([Cl])[n+]1ccc(Cl)cc1 (stereo not drawn) [Example 8]	0/6
N.N.[Cl-].[Cl][Pt+].c1ccncc1 [Example 1]	0/7
N.N.Nc1cc[nH]c(=O)n1.[Cl-].[Cl][Pt+] [Example 6]	2/6
[Cl-].[NH3+][Pt-2]([NH3+])([Cl])[n+]1cccc(O)c1 (stereo not drawn) [Example 4]	0/6

Go through the items and report each one's 30-Day Survivors.
1. Cc1cc[n+]([Pt-2]([NH3+])([NH3+])[Cl])cc1.[Cl-] (stereo not drawn) [Example 5]
2. N.N.Oc1ccccn1.[Cl-].[Cl][Pt+] [Example 2]
3. Cc1cccc(O)[n+]1[Pt-2]([NH3+])([NH3+])[Cl].[Cl-] (stereo not drawn) [Example 3]

Response line:
1. 0/6
2. 0/6
3. 3/6

Go through the items and report each one's 30-Day Survivors.
1. Cc1ccc(O)c[n+]1[Pt-2]([NH3+])([NH3+])[Cl].[Cl-] (stereo not drawn) [Example 7]
2. [Cl-].[Cl][Pt-2]1([n+]2ccccc2)[NH2+]C2CCCCC2[NH2+]1 (stereo not drawn) [Example 19]

Response line:
0/6
0/6
